# System: Trypanosoma cruzi
# ASSAY INFO: Antiparasitic activity against amastigote form of Trypanosoma cruzi Y strain infected in bone marrow macrophage cells assessed as amastigote viability incubated for 4 days by rapid panoptic stain based microscopy method
# Assay type: functional, organism-based
# CONDITIONS USED: 96 h
METRIC: IC50 (µM)

                                   compound  metric  reading
0  O=C(Cn1cc(-c2ccc([N+](=O)[O-])cc2)nn1)NCc1ccccc1    IC50     41.2
1  O=C(Cn1ccnc1[N+](=O)[O-])NCc1ccccc1 [BENZNIDAZOLE]    IC50       16
2      COc1cccc(-c2cnnn2CC(=O)NCc2ccccc2)c1    IC50     60.4
3    COc1cccc(-c2cn(CC(=O)NCc3ccccc3)nn2)c1    IC50     61.8
